The values you see were collected from paper PMC4980431.

Target: T1, Ctf4 471–927 (budding yeast, UniProt Q01454 471-927)
T1 construct: also called Ctf4CTD; source: purified Ctf4CTD protein
T1 sequence (looked up): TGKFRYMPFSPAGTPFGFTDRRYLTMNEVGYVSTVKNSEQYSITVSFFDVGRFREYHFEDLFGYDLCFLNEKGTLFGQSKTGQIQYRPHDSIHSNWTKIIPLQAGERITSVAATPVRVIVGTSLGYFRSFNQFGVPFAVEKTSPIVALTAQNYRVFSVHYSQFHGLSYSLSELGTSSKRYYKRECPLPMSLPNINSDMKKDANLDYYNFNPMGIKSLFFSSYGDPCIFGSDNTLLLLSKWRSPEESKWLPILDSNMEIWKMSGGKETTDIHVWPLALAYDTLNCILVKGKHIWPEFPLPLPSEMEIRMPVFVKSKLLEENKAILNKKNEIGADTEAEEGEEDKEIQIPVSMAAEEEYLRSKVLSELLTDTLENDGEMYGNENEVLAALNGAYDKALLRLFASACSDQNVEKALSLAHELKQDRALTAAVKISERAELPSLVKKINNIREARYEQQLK
Experiment: fluorescence polarisation; fluorescence anisotropy; serial dilutions of Ctf4CTD with 40 nM (Sld5, Tof2) or 50 nM (Dna2) fluorescein-labeled peptide; 20 mM HEPES pH 7.2, 140 mM KCl, 5% glycerol, 25°C
Settings: both partners purified
Where no end group is shown, it is not given here. fluorescein = amino-terminal fluorescein label
Attribute Measured: Kd (µM)
Only the number, expressed in µM, is required.

Q: What does the record list as Kd for fluorescein-SLRNIDDILDDIEGDLT (Dna2, yeast, residues 207-223; also called Dna2 CIP-box peptide; isolated peptide containing the Dna2 CIP-box; source: synthetic peptide (Cambridge Peptides)) [Dna2 peptide 207–223] ?
Ans: 230
